Form field: Dmax (one value per entry).
- Assayed System: SMARCA4 (Homo sapiens, UniProt P51532)
- Construct: SMARCA2 and SMARCA4 protein degradation in MV4-11 cells; endogenous in cells; host or cells: MV4-11
- Sequence (P51532 whole entry): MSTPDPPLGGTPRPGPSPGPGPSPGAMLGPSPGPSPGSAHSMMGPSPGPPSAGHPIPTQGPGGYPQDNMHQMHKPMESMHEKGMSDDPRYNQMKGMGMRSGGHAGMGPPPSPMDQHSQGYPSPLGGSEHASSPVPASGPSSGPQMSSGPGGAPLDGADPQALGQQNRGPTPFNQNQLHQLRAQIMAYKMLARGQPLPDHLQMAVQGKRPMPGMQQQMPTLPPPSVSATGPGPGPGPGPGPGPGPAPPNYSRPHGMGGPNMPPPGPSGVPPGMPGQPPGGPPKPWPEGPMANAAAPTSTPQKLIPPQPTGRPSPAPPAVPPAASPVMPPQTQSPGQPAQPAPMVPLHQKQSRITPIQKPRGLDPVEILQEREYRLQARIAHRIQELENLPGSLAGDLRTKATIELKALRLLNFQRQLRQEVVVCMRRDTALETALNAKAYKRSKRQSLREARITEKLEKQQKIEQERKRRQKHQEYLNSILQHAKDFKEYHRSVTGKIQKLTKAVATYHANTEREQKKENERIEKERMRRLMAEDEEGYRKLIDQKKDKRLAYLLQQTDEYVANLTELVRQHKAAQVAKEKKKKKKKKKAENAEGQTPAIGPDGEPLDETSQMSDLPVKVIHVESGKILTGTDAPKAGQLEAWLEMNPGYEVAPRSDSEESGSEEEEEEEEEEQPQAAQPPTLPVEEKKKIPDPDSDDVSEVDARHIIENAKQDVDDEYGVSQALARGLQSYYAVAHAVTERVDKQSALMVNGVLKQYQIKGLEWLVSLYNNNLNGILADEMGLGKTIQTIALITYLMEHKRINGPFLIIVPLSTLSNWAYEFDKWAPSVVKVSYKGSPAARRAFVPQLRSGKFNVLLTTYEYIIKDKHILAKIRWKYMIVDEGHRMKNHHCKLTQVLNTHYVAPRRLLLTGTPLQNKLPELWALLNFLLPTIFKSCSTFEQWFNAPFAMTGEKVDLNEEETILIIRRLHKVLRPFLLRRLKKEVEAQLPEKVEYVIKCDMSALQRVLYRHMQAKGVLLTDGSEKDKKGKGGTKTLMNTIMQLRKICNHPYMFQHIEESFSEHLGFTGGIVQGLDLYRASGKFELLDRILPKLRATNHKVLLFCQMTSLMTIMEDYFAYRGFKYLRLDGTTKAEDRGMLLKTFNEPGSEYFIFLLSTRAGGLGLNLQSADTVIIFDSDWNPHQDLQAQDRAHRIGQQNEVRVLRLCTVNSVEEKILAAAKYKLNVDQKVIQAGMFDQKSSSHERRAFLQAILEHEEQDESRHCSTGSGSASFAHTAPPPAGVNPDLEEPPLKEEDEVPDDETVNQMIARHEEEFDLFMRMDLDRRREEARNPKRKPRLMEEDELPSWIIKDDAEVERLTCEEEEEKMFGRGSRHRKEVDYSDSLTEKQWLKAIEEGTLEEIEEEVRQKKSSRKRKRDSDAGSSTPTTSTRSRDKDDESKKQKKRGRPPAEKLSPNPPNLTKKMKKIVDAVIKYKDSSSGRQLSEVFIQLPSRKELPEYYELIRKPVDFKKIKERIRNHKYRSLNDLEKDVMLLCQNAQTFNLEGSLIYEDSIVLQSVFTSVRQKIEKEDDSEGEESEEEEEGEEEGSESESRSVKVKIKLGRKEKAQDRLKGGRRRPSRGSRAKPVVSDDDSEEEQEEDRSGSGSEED
- Experiment Summary: SMARCA4 Western blot MV4-11 degradation
- Format: cell-based
- Experimental Parameters: MV4-11, MV4-11 cells, 24 h; read-out: SMARCA4 MSD MV411 degradation 24 h: average Dmax %

Cc1ncsc1-c1ccc(CNC(=O)[C@@H]2C[C@@H](O)CN2C(=O)[C@@H](NC(=O)C2CC3(C2)CC(N2CCC(Oc4cc(N5C6CCC5CN(c5cc(-c7ccccc7O)nnc5N)C6)ccn4)CC2)C3)C(C)(C)C)cc1 (some centres unmarked) = > 90%
Cc1ncsc1-c1ccc(CNC(=O)[C@@H]2C[C@@H](O)CN2C(=O)C(c2cc(OCCN3CCC(c4cnc(N5C6CCC5CN(c5cc(-c7ccccc7O)nnc5N)C6)nc4)CC3)no2)C(C)C)cc1 (some centres unmarked) = > 90%
Cc1ncsc1-c1ccc(CNC(=O)[C@@H]2C[C@@H](O)CN2C(=O)C(c2cc(N3CCC(CCN4CCC(c5cnc(N6C7CCC6CN(c6cc(-c8ccccc8O)nnc6N)C7)nc5)CC4)CC3)no2)C(C)C)cc1 (some centres unmarked) = > 90%
Cc1ncsc1-c1ccc(CNC(=O)[C@@H]2C[C@@H](O)CN2C(=O)[C@@H](NC(=O)CN2CC3(C2)CN(C2CCC(c4cnc(N5C6CCC5CN(c5cc(-c7ccccc7O)nnc5N)C6)nc4)CC2)C3)C(C)(C)C)cc1 (some centres unmarked) = > 90%

Now, please, on to the next molecule.
Ask: Item Cc1ncsc1-c1ccc(CNC(=O)[C@@H]2C[C@@H](O)CN2C(=O)[C@@H](NC(=O)[C@H]2CC3(C2)C[C@H](N2CC4(CN(c5cnc(N6C7CCC6CN(c6cc(-c8ccccc8O)nnc6N)C7)nc5)C4)C2)C3)C(C)(C)C)cc1 (some centres unmarked) has what recorded Dmax?
Reply: < 50%

###

- Assayed System: SMARCA4 (Homo sapiens, UniProt P51532)
- Construct: SMARCA2 and SMARCA4 protein degradation in MV4-11 cells; endogenous in cells; host or cells: MV4-11
- Experiment Summary: SMARCA4 Western blot MV4-11 degradation
- Type: cell-based
- Experimental Parameters: MV4-11, MV4-11 cells, 24 h; read-out: SMARCA4 MSD MV411 degradation 24 h: average Dmax %
Measured Property: Dmax

Worked cases, answers included:
Cc1ncsc1-c1ccc(CNC(=O)[C@@H]2C[C@@H](O)CN2C(=O)[C@@H](NC(=O)[C@H]2CC3(CC[C@H](N4CCC(c5cnc(N6C7CCC6CN(c6cc(-c8ccccc8O)nnc6N)C7)nc5)CC4)CC3)C2)C(C)(C)C)cc1 (stereo partly drawn) = 70 to 90%
Cc1ncsc1-c1ccc(CNC(=O)[C@@H]2C[C@@H](O)CN2C(=O)[C@@H](c2cc(OCCCCN3CCC(c4cnc(N5C6CCC5CN(c5cc(-c7ccccc7O)nnc5N)C6)nc4)CC3)no2)C(C)C)cc1 = > 90%
Cc1ncsc1-c1ccc(CNC(=O)[C@@H]2C[C@@H](O)CN2C(=O)[C@@H](NC(=O)C2CC3(C2)CN(C2CCN(c4cnc(N5C6CCC5CN(c5cc(-c7ccccc7O)nnc5N)C6)nc4)CC2)C3)C(C)(C)C)cc1 = < 50%
Cc1ncsc1-c1ccc(CNC(=O)[C@@H]2C[C@@H](O)CN2C(=O)[C@@H](NC(=O)[C@H]2CCC3(CC2)C[C@H](N2CCC(c4cnc(N5C6CCC5CN(c5cc(-c7ccccc7O)nnc5N)C6)nc4)CC2)C3)C(C)(C)C)cc1 (stereo partly drawn) = < 50%
Cc1ncsc1-c1ccc(CNC(=O)[C@@H]2C[C@@H](O)CN2C(=O)[C@@H](NC(=O)[C@H]2CC3(C2)C[C@H](N2CCC(c4ccc(N5C6CCC5CN(c5cc(-c7ccccc7O)nnc5N)C6)cc4)CC2)C3)C(C)(C)C)cn1 (stereo partly drawn) = < 50%

Ask: Can you share its Dmax? I mean this compound: Cc1ncsc1-c1ccc(CNC(=O)[C@@H]2C[C@@H](O)CN2C(=O)[C@@H](NC(=O)[C@H]2CC3(C2)C[C@H](N2CCC(c4ccc(N5C6CCC5CN(c5cc(-c7ccccc7O)nnc5N)C6)cc4)CC2)C3)C(C)(C)C)nc1 (stereo partly drawn)
Reply: < 50%

Ask: Also check Cn1nccc1-c1ccc(CNC(=O)[C@@H]2C[C@@H](O)CN2C(=O)[C@@H](NC(=O)[C@H]2CC3(C2)C[C@H](N2CCC(c4cnc(N5C6CCC5CN(c5cc(-c7ccccc7O)nnc5N)C6)nc4)CC2)C3)C(C)(C)C)cc1 (stereo partly drawn)
Reply: 50 to 70%

Ask: How about Cc1ncsc1-c1ccc([C@H](C)NC(=O)[C@@H]2C[C@@H](O)CN2C(=O)[C@@H](NC(=O)[C@H]2CCC3(CC2)C[C@H](N2CCC(c4cnc(N5C6CCC5CN(c5cc(-c7ccccc7O)nnc5N)C6)nc4)CC2)C3)C(C)(C)C)cc1 (stereo in doubt) ?
Reply: 50 to 70%

Ask: Then what about the compound Cc1ncsc1-c1ccc(CNC(=O)[C@@H]2C[C@@H](O)CN2C(=O)[C@@H](NC(=O)CN(C)Cc2cnc(N3C4CCC3CN(c3cc(-c5ccccc5O)nnc3N)C4)nc2)C(C)(C)C)cc1 ?
Reply: > 90%

###

- Assayed System: SMARCA4 (Homo sapiens, UniProt P51532)
- Construct: SMARCA2 and SMARCA4 protein degradation in MV4-11 cells; endogenous in cells; host or cells: MV4-11
- Experiment Summary: SMARCA4 Western blot MV4-11 degradation
- Assay type: cell-based
- Experimental Parameters: MV4-11, MV4-11 cells, 24 h; read-out: SMARCA4 MSD MV411 degradation 24 h: average Dmax %
Measured Property: Dmax

A selection of reference data follows.
Cc1ncsc1-c1ccc(CNC(=O)[C@@H]2C[C@@H](O)CN2C(=O)[C@@H](NC(=O)C2CC3(C2)CN(C2CCC(c4cnc(N5C6CCC5CN(c5cc(-c7ccccc7O)nnc5N)C6)nc4)CC2)C3)C(C)(C)C)cc1 (stereo partly shown) = < 50%
Cc1ncsc1-c1ccc(CNC(=O)[C@@H]2C[C@@H](O)CN2C(=O)[C@@H](NC(=O)C2CC3(C2)CC(N2CCC(COc4ccc(N5C6CCC5CN(c5cc(-c7ccccc7O)nnc5N)C6)cn4)CC2)C3)C(C)(C)C)cc1 (stereo partly shown) = > 90%
Cc1ncsc1-c1cnc(CNC(=O)[C@@H]2C[C@@H](O)CN2C(=O)[C@@H](NC(=O)[C@H]2CC3(C2)C[C@H](N2CCC(c4ccc(N5C6CCC5CN(c5cc(-c7ccccc7O)nnc5N)C6)cc4)CC2)C3)C(C)(C)C)nc1 (stereo partly shown) = < 50%

Let's switch to this compound now.
Ask: Endpoint output: Dmax of Cc1nccn1-c1ccc(CNC(=O)[C@@H]2C[C@@H](O)CN2C(=O)[C@@H](NC(=O)[C@H]2CC3(C2)C[C@H](N2CCC(c4cnc(N5C6CCC5CN(c5cc(-c7ccccc7O)nnc5N)C6)nc4)CC2)C3)C(C)(C)C)cc1 (stereo partly shown) . Value?
Reply: < 50%

###

# DC50 per record follows
- Assayed System: SMARCA2 (Homo sapiens)
- Sequence (P51531 whole entry): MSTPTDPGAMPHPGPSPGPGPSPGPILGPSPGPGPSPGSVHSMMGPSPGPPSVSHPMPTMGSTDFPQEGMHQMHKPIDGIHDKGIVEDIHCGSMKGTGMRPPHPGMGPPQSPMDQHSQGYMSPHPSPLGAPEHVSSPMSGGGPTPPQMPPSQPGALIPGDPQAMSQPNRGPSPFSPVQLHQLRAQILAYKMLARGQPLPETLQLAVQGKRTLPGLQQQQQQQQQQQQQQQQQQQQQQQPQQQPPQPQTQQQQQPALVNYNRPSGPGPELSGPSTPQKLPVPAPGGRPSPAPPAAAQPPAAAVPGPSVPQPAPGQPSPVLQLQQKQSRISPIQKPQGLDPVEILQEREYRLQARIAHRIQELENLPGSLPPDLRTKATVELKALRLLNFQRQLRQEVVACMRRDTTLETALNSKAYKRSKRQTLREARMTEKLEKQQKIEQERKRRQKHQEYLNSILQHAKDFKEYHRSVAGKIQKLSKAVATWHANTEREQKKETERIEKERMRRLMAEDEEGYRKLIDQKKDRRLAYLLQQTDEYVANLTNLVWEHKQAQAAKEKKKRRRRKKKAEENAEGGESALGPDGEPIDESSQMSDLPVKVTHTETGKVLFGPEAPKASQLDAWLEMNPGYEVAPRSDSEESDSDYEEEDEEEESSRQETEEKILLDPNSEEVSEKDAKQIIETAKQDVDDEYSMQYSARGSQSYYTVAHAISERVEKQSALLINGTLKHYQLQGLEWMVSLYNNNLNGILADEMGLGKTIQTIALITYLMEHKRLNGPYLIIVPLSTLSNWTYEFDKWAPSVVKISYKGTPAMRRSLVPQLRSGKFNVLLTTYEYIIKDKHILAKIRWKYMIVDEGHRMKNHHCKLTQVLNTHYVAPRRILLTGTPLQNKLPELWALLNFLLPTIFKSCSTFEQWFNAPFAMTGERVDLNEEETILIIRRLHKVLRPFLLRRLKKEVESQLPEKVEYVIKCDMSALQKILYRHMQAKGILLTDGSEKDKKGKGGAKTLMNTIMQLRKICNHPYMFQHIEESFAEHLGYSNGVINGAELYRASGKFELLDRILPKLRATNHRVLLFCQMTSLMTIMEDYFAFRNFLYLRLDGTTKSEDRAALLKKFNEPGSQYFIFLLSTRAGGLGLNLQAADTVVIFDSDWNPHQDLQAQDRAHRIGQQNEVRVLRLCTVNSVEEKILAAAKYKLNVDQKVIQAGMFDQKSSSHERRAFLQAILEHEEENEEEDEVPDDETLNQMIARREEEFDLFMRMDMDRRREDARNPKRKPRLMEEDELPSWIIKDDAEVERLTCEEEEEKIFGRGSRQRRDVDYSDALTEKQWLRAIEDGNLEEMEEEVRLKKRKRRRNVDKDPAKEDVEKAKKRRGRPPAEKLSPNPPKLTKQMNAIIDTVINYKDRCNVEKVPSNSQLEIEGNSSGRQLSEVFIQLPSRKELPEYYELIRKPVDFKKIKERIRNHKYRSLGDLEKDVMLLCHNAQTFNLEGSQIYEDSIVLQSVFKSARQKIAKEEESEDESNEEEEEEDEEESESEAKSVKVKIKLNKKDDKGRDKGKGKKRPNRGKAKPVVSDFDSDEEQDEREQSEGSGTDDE
- Experiment Summary: SMARCA2 Western blot MV4-11 degradation
- Format: cell-based
- Design: SMARCA2 and SMARCA4 protein degradation in MV4-11 cells; endogenous in cells; host or cells: MV4-11
- Experimental Parameters: MV4-11 cells, 24 h; read-out: SMARCA2 MSD MV411 degradation 24 h: Mean external-Abs DC50

Cc1ncsc1-c1ccc(CNC(=O)[C@@H]2C[C@@H](O)CN2C(=O)[C@@H](NC(=O)[C@H]2CC3(CC[C@H](N4CCC(c5cnc(N6C7CCC6CN(c6cc(-c8ccccc8O)nnc6N)C7)nc5)CC4)CC3)C2)C(C)(C)C)cc1 (stereo partly shown) [I-14] = < 100 nM

Ask: So what does the record say about DC50 for Cn1nccc1-c1ccc(CNC(=O)[C@@H]2C[C@@H](O)CN2C(=O)[C@@H](NC(=O)[C@H]2CC3(C2)C[C@H](N2CCC(c4cnc(N5C6CCC5CN(c5cc(-c7ccccc7O)nnc5N)C6)nc4)CC2)C3)C(C)(C)C)cc1 (stereo partly shown) [I-35] ?
Reply: < 100 nM

Ask: Cc1ncsc1-c1ccc(CNC(=O)[C@@H]2C[C@@H](O)CN2C(=O)C(c2cc(OCCCOCCCN3CCC(Cn4cc(-c5cc(-c6ccccc6O)nnc5N)cn4)CC3)no2)C(C)C)cc1 (stereo partly shown) [I-21] ?
Reply: < 100 nM

Ask: One more compound: Cc1ncsc1-c1ccc(C2(NC(=O)[C@@H]3C[C@@H](O)CN3C(=O)[C@@H](NC(=O)[C@H]3CC4(C3)C[C@H](N3CCC(c5cnc(N6C7CCC6CN(c6cc(-c8ccccc8O)nnc6N)C7)nc5)CC3)C4)C(C)(C)C)CC2)cc1 (single isomer, unassigned) [I-4]
Reply: < 100 nM
